- system: Estrogen receptor (Homo sapiens) (UniProt P03372)
- Sequence (whole entry): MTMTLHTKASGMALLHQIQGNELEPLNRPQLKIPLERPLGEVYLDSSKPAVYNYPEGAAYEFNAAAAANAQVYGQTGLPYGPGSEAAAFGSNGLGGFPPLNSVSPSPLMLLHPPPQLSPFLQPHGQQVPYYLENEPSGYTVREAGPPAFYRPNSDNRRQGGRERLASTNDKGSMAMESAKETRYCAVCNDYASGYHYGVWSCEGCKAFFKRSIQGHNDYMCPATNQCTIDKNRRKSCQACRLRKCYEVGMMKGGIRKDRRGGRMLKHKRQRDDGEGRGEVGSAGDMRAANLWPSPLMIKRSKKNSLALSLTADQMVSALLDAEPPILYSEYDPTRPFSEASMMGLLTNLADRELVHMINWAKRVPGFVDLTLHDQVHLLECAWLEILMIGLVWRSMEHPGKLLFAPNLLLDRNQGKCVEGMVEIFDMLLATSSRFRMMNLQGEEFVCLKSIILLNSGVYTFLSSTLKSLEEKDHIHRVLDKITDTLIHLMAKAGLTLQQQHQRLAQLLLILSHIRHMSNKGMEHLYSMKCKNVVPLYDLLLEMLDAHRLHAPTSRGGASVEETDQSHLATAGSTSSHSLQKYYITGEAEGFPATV
- method.notes: Agonist activity at ERalpha (unknown origin) expressed in human HepG2 cells assessed as transcriptional activation after 24 hrs by ERE-luciferase reporter gene assay relative to 17beta-estradiol
- Format: cell-based
readout: Efficacy (%)
Return type: number; implicit unit %.

{"mol.smiles": "Oc1ccc(C(=Nc2ccccc2)c2ccc(O)cc2)cc1", "system": "Estrogen receptor (Homo sapiens) (UniProt P03372)", "unit.of.measurement": "%", "Efficacy": 110}
{"mol.smiles": "Oc1ccc(/C(=N\\c2ccc(F)cc2)c2ccc(O)cc2O)cc1", "system": "Estrogen receptor (Homo sapiens) (UniProt P03372)", "unit.of.measurement": "%", "Efficacy": 108}

Would you kindly share the measured Efficacy for Oc1ccc(/C(=N\c2cccc(C(F)(F)F)c2)c2ccc(O)cc2O)cc1 ?
100

Same question for Oc1ccc(/C(=N\c2ccc(Br)cc2)c2ccc(O)cc2O)cc1 please.
113

Same question for Oc1ccc(C(=Nc2cccc(C(F)(F)F)c2)c2ccc(O)cc2)cc1 please.
89

Same question for Oc1ccc(/C(=N\c2ccccc2)c2ccc(O)cc2O)cc1 please.
102

Same question for Oc1ccc(/C(=N\c2ccc(Cl)cc2)c2ccc(O)cc2O)cc1 please.
114
